assay: APR_HepG2_MicrotubuleCSK_72hr: Apredica 72-hour HepG2 Assay for Microtubule CSK Stabilty (AID 2282919); conditions: HepG2 microtubule cytoskeleton, high-content imaging, actives raise or lower the signal
The source made the active and inactive calls. The calls were made as follows: active = hit-call score of the fitted dose curve at least 0.9, where 1 is the maximum; inactive = score below 0.9.
// allowed return values: Yes = active, No = inactive

Reference set (5 entries):
CCn1nc(C)c2c1C(=O)NCC(c1ccc(O)cc1)=N2 :: No
C[C@@H](Oc1ccc(CNC(=O)c2cccnc2Oc2ccc3c(c2)OCO3)c(F)c1)C(=O)O :: No
OC[C@H]1O[C@@](CO)(O[C@H]2O[C@H](CO)[C@@H](O)[C@H](O)[C@H]2O)[C@@H](O)[C@@H]1O :: No
CNC(C)=O :: No
Cn1cc[nH]c1=S :: No

### Prompt Please state the recorded outcome for this molecule: Cn1c(=O)c2[nH]cnc2n(C)c1=O
### Response No

### Prompt Tell me the assay call for CCN(CC)C(=S)SSC(=S)N(CC)CC please.
### Response Yes

### Prompt Query: recorded result category for NC(N)=O in this test
### Response No

### Prompt Please state the recorded outcome for this molecule: OCCNCCO
### Response No

### Prompt Field: outcome | Entry: CCCCCCCCN(C)C
### Response No

### Prompt State the result this test recorded for OC(CCl)CCl .
### Response No

### Prompt Just curious, what result did CC(C)C(=O)Nc1ccc([N+](=O)[O-])c(C(F)(F)F)c1 get here?
### Response Yes

### Prompt Write down the call the test reported for this molecule. Item: Cc1nccn1-c1ccc(Sc2cccc(C3(C(N)=O)CCOCC3)c2)cc1
### Response No

### Prompt What did the test return for C[C@]12C=CC(=O)C=C1CC[C@H]1[C@@H]3C[C@@H](O)[C@](O)(C(=O)CO)[C@@]3(C)C[C@H](O)[C@@]12F ?
### Response No

### Prompt Query: recorded result category for CCCCCOC(C)=O in this test
### Response No

### Prompt Field: outcome | Entry: CCCc1ccccc1
### Response No

###

Assay: CCTE_Shafer_MEA_dev_network_spike_number: CCTE's Neural Network Formation Assay for Number of Network Spikes, Shafer Lab (AID 2284048);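 also: synchronized bursts across electrodes counted on days 5 7 9 12 and integrated as AUC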;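 as to AC50: fit as a loss of signal meaning fewer network spikes than DMSO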
Method: CCTE_Shafer_MEA_dev assay is conducted using Axion Biosystems 48 well microelectrode array (MEA) plates and Maestro recording system. Each well of the MEA plate contains a grid of 16 microelectrodes embedded in the culture surface. Electrically active cells, such as neurons, can be cultured over the electrodes, and electrical activity in these cells can be recorded extracellularly. […]
Activity calls are given as the source filed them. Rule for the calls: active = hit-call score of the fitted dose curve at least 0.9, where 1 is the maximum; inactive = score below 0.9.
Quantity Kind: AC50

CC[C@H](C)C(=O)O[C@H]1C[C@H](O)C=C2C=C[C@H](C)[C@H](CC[C@@H](O)C[C@@H](O)CC(=O)O)[C@H]21 :: 143 nM (active)
FC(F)(F)COC(OCC(F)(F)F)OCC(F)(F)F :: inactive
COc1cc2c(c(OC)c1OC)-c1ccc(OC)c(=O)cc1[C@@H](NC(C)=O)CC2 :: 26 nM (active)
c1ccc2c(c1)-c1cccc3c1c-2cc1ccccc13 :: inactive
FC(F)(F)C(F)(F)C(F)(F)C(F)(F)C(F)(F)C(F)(F)I :: inactive
OC(Cn1cncn1)(Cn1cncn1)c1ccc(F)cc1F :: inactive
OC(O)(C(F)C(O)(O)C(F)(F)F)C(F)(F)F :: inactive
NC(=O)N1c2ccccc2C=Cc2ccccc21 :: inactive

Below are some compounds; for each one, tell me its AC50.
1. Cn1cc[nH]c1=S
2. c1ccc2cc3ccccc3cc2c1
3. O=C(Cl)C(F)(F)C(F)(F)C(F)(F)C(=O)Cl
4. CCOc1ccc2[nH]cc(C(=O)NCc3ccccc3)c(=O)c2n1

### Response
inactive
inactive
inactive
inactive
